test system: human malignant T and B cells and various tumor cell lines; assay: Toxicity profile against human malignant T and B cells and various tumor cell lines (MTT, IC50); type: cell-based; settings: SupT1 (human T-cell lymphoblast cell line); MTT assay, 3-5 days; read-out: Toxicity IC50
pIC50: −log10 of the molar value.
readout: pIC50

Nc1nc(=O)n([C@@H]2C[C@H](CO)[C@@H](O)[C@H]2O)cc1F	6.52
O=c1[nH]cc(F)c(=O)[nH]1	4.27

###

Ave. rDNA ΔCt values for the molecules below.
tested on: rDNA (host DNA); assay: rDNA ΔCt in Huh7 replicon cells (effect on cellular DNA polymerases); conditions: Table 25, average of N
readout: Ave. rDNA ΔCt

Nc1ccn([C@@H]2O[C@H](CO)[C@@H](O)[C@@H]2Cl)c(=O)n1	2.53
Nc1cn([C@@H]2O[C@H](CO)[C@@H](O)[C@H]2O)c(=O)nc1N	0.81
Nc1nc(Cl)c2ncn([C@H]3CS[C@@H](CO)O3)c2n1	0.00
CS(=O)(=O)OC1C(CO)OC(n2ccc(N)nc2=O)C1O (stereo not shown)	2.69

###

tested on: Vero cells; assay: cells; assay type: cell-based; settings: 100 μM; three day incubation, MTT
Output Condition met for % inhibition at 100 μM, Vero Cells not less than 30%; output Condition not met otherwise.

O=c1[nH]c(=O)n([C@H]2C[C@@H](CO)[C@H](O)[C@@H]2O)cc1F	Condition met
Nc1nc(=O)n([C@H]2C[C@@H](CO)[C@H](O)[C@@H]2O)cc1F	Condition not met
Nc1ccn([C@H]2C[C@@H](CO)[C@H](O)[C@@H]2O)c(=O)n1	Condition not met
Nc1nc(=O)n([C@H]2C[C@@H](CO)[C@H](O)[C@@H]2O)cc1I	Condition not met
Nc1ccn(C2CCC(CO)C2)c(=O)n1 (stereo not drawn)	Condition not met
Nc1nc(=O)n([C@H]2C[C@@H](CO)[C@H](O)[C@@H]2O)cc1Cl	Condition met
Nc1nc(=O)n([C@@H]2CC[C@H](CO)C2)cc1I	Condition met
O=c1ccn([C@@H]2CC[C@H](CO)C2)c(=O)[nH]1	Condition not met
O=c1[nH]c(=O)n([C@@H]2C[C@H](CO)[C@@H](O)[C@H]2O)cc1F	Condition not met

###

tested on: HCV replicon; assay: HCV replicon system in Huh7 cells, replicon RNA by Q-RT-PCR (HCV ΔCt, ΔΔCt); type: cell-based, hepatitis C virus; settings: Table 25; HCV RNA ΔCt minus rDNA ΔCt
Output fulfilled for average ΔΔCt not less than 3; output not fulfilled otherwise.

O=C(Nc1nc(=O)n([C@H]2C=C[C@@H](CO)O2)cc1F)c1ccccc1[N+](=O)[O-]	not fulfilled
O=c1nc(NO)c(I)cn1[C@@H]1O[C@H](CO)[C@@H](O)[C@H]1O	not fulfilled
Nc1nc(=O)c([C@@H]2O[C@H](CO)[C@@H](O)[C@H]2O)c[nH]1	not fulfilled
N=c1nc2c(c[nH]1)[C@@H]1O[C@H](CO)[C@@H](O)[C@@H]1O2	not fulfilled
OC[C@@H]1C[C@H](F)[C@H](n2cnc3c(Cl)ncnc32)O1	fulfilled
Nc1ncnc2c1ncn2[C@@H]1O[C@H](CO)[C@@H](F)[C@H]1O	fulfilled
Cc1ccc(S(=O)(=O)O[C@@H]2[C@@H](O)[C@H](n3cc(I)c(N)nc3=O)O[C@@H]2CO)cc1	fulfilled
O=c1nc2n(cc1F)[C@@H]1O[C@H](CO2)[C@@H](O)[C@H]1O	not fulfilled
